- System: HCV replicon 1b Y93H
- method_summary: Cell-based HCV replicon assay, genotype 1b Y93H
- condition_context: Hepatitis C virus, 72 h, read-out: EC50 1b Y93H
property: pEC50
Interpret pEC50 as the negative base-10 log of the concentration measured in mol/L.

| smiles_structure | property | data_value |
| --- | --- | --- |
| COC(=O)N[C@H](C(=O)N1CCC[C@@H]1c1ncc(-c2ccc(C#Cc3ccc4nc([C@@H]5CCCN5C(=O)[C@@H](NC(=O)OC)C(C)C)[nH]c4c3)cc2)[nH]1)C(C)C | pEC50 | 8.30 |

Moving on to another molecule below.
Entry COC(=O)N[C@@H](C(=O)N1CCC[C@@H]1c1ncc(-c2ccc(C#Cc3ccc4nc([C@@H]5CCCN5C(=O)[C@H](NC(=O)OC)c5ccccc5)[nH]c4c3)cc2)[nH]1)c1ccccc1 , system HCV replicon 1b Y93H: what pEC50 was measured?
9.30

Values compiled from patent US8980920B2.
